assay-info: in vivo
Parameters: species or system mice
stated-conditions: male, SCID, mouse, iv, 730 kBq, total radioactivity, Biodistribution, Intestines
Residues, ends and D or L forms follow the SMILES beside them. *: point of attachment. DOTA = O=C(O)CN1CCN(CC(=O)O)CCN(CC(=O)*)CCN(CC(=O)O)CC1; X1 = Cc1ccc(CCCC(=O)NCCOCCOCCOCCOCC(=O)*)cc1; βAla = NCCC(=O)O

{"columns": ["molecule", "tissue uptake at 48 h / %ID/g"],
 "data": [
  ["CC[C@H](C)[C@H](NC(=O)[C@H](Cc1ccc(O)cc1)NC(=O)[C@@H]1CCCN1C(=O)[C@H](CCCNC(=N)N)NC(=O)[C@H](CCCNC(=N)N)NC(=O)[C@H](CCCCNC(=O)COCCOCCOCCOCCNC(=O)CCCc1ccc(C)cc1)NC(=O)CCNC(=O)CCNC(=O)CCNC(=O)CN1CCN(CC(=O)O)CCN(CC(=O)O)CCN(CC(=O)O)CC1)C(=O)N[C@@H](CC(C)C)C(=O)O [[^177Lu]Lu-DT14D, metal not drawn] ({DOTA-βAla-βAla-βAla}-K(X1)RRPYIL-OH)", 0.36]
]}
